assay-text: Plasma protein binding rate (PPB) test, equilibrium dialysis
Type: in vitro ADME, Sprague-Dawley rats
condition-label: Sprague-Dawley, rat, 37°C, read-out: Plasma Protein Binding (%) SD Rat Plasma (converted)
observed-property: fraction unbound at 4 h

| compound | fraction unbound at 4 h |
| --- | --- |
| COc1ccc2c(c1OCc1ccccc1)C[C@@H](C(=O)O)N(C(=O)[C@@H](OC1(C)CCCC1)c1ccccc1)C2 | 0.002 |
| COc1ccc2c(c1OCc1ccccc1)C[C@@H](C(=O)O)N(C(=O)[C@@H](OC1CCCC1)c1ccccc1)C2 | 0.001 |

I = COc1ccc2c(c1OCc1ccccc1)C[C@@H](C(=O)O)N(C(=O)C(c1ccccc1)c1ccccc1)C2 [EMA-401, reference compound]
II = COc1ccc2c(c1OCc1ccccc1)C[C@@H](C(=O)O)N(C(=O)[C@@H](O[C@H]1CC[C@@H](O)CC1)c1ccccc1)C2
III = N#Cc1ccc2c(c1OCc1ccccc1)C[C@@H](C(=O)O)N(C(=O)[C@H](OC1CCCC1)c1ccccc1)C2
IV = COc1ccc2c(c1OCc1ccccc1)C[C@@H](C(=O)O)N(C(=O)[C@@H](OC1CC(F)(F)C1)c1ccccc1)C2
Reorder: fraction unbound at 4 h, max to min. State the ranking by listing the labels in the requested order. IV, II, III, I
